Hello, the source for this data is paper PMC3961306, in case you need it.

Reported %-inhibition, AMPKα2/β1/γ1 values for a set of molecules
studySystem: panel of more than 300 wild-type and mutant kinases (313 kinase panel) (Homo sapiens)
assayProcedure: Kinase profiling in a biochemical assay panel (mobility shift assays and ELISA), %-inhibition at 1 μM; selectivity entropy
experimentalContext: kinase AMPKα2/β1/γ1; 1 μM compound

Consider the worked cases shown below.
{"molecule": "CCCS(=O)(=O)Nc1ccc(F)c(C(=O)c2c[nH]c3ncc(-c4ccc(Cl)cc4)cc23)c1F", "%-inhibition, AMPKα2/β1/γ1": "6.49%"}
{"molecule": "C[C@@H](Oc1cc(-c2cnn(C3CCNCC3)c2)cnc1N)c1c(Cl)ccc(F)c1Cl", "%-inhibition, AMPKα2/β1/γ1": "27%"}
{"molecule": "CO[C@H]1C[C@@H]2CC[C@@H](C)[C@@](O)(O2)C(=O)C(=O)N2CCCC[C@H]2C(=O)O[C@H]([C@H](C)C[C@@H]2CC[C@@H](OC(=O)C(C)(CO)CO)[C@H](OC)C2)CC(=O)[C@H](C)/C=C(\\C)[C@@H](O)[C@@H](OC)C(=O)[C@H](C)C[C@H](C)/C=C/C=C/C=C/1C", "%-inhibition, AMPKα2/β1/γ1": "-4%"}
{"molecule": "Cc1ccc(C(=O)Nc2ccc(CN3CCN(C)CC3)c(C(F)(F)F)c2)cc1C#Cc1cnc2cccnn12", "%-inhibition, AMPKα2/β1/γ1": "89%"}
{"molecule": "COc1cc2nccc(Oc3ccc(NC(=O)C4(C(=O)Nc5ccc(F)cc5)CC4)cc3)c2cc1OC [cabozantinib]", "%-inhibition, AMPKα2/β1/γ1": "1.75%"}

Now consider a different molecule.
query: Fill blank: measured %-inhibition, AMPKα2/β1/γ1 of the molecule Cc1cn(-c2cc(NC(=O)c3ccc(C)c(Nc4nccc(-c5cccnc5)n4)c3)cc(C(F)(F)F)c2)cn1 is ____.
result: -0.54%

----------
Reported %-inhibition, ABL(E255K) values for a set of molecules
studySystem: panel of more than 300 wild-type and mutant kinases (313 kinase panel) (Homo sapiens, UniProt P00519, E255K)
Sequence (P00519 whole entry E255K): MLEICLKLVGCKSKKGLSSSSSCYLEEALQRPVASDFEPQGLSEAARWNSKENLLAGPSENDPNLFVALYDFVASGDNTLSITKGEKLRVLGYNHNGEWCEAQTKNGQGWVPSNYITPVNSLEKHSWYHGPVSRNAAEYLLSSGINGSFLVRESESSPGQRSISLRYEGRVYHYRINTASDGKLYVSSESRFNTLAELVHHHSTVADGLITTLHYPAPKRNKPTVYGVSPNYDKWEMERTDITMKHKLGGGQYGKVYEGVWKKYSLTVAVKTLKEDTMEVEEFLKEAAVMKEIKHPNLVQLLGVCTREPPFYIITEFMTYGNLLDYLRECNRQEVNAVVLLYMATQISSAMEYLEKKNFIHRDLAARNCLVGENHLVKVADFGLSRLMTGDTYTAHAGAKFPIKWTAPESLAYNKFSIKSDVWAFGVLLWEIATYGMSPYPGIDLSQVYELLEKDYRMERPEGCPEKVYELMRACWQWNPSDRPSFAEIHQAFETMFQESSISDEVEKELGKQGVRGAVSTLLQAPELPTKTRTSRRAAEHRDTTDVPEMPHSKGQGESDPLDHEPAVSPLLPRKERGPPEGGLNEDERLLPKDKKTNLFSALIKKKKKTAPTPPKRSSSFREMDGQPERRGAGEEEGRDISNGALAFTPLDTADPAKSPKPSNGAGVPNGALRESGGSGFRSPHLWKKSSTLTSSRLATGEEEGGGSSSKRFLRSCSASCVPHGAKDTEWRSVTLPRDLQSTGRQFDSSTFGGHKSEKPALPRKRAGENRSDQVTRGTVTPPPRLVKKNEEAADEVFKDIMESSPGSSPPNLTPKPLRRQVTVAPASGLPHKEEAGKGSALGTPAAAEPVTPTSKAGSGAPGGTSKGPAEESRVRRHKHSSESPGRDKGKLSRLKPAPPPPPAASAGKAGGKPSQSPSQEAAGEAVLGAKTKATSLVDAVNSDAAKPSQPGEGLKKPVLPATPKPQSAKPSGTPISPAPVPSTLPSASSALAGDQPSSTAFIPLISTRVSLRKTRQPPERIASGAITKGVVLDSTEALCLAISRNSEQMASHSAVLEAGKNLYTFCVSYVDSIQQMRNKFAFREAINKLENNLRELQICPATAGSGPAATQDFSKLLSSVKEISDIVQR
assayProcedure: Kinase profiling in a biochemical assay panel (mobility shift assays and ELISA), %-inhibition at 1 μM; selectivity entropy
experimentalContext: kinase ABL(E255K); 1 μM compound
Give your result in % as a bare value.

Consider the worked cases shown below.
{"molecule": "CNC(=O)c1cc(Oc2ccc(NC(=O)Nc3ccc(Cl)c(C(F)(F)F)c3)c(F)c2)ccn1", "%-inhibition, ABL(E255K) (%)": 33}
{"molecule": "O=S(=O)(c1cccc2cnccc12)N1CCCNCC1", "%-inhibition, ABL(E255K) (%)": -3}
{"molecule": "CCCS(=O)(=O)Nc1ccc(F)c(C(=O)c2c[nH]c3ncc(-c4ccc(Cl)cc4)cc23)c1F", "%-inhibition, ABL(E255K) (%)": 2.49}
{"molecule": "COc1cc2nccc(Oc3ccc(NC(=O)C4(C(=O)Nc5ccc(F)cc5)CC4)cc3)c2cc1OC [cabozantinib]", "%-inhibition, ABL(E255K) (%)": 25}

Now consider a different molecule.
query: Fill blank: measured %-inhibition, ABL(E255K) of the molecule CS(=O)(=O)CCNCc1ccc(-c2ccc3ncnc(Nc4ccc(OCc5cccc(F)c5)c(Cl)c4)c3c2)o1 is ____.
result: -4.67

----------
studySystem: panel of more than 300 wild-type and mutant kinases (313 kinase panel) (Homo sapiens, UniProt Q9NQU5)
assayProcedure: Kinase profiling in a biochemical assay panel (mobility shift assays and ELISA), %-inhibition at 1 μM; selectivity entropy
experimentalContext: kinase PAK6; 1 μM
Reported %-inhibition of PAK6 values for a set of molecules
The reply should consist of the numeric value with the unit placed after it.

Consider the worked cases shown below.
{"molecule": "C[C@@H](Oc1cc(-c2cnn(C3CCNCC3)c2)cnc1N)c1c(Cl)ccc(F)c1Cl", "recordedEndpoint": "%-inhibition of PAK6", "measuredResult": "3%"}
{"molecule": "CCCS(=O)(=O)Nc1ccc(F)c(C(=O)c2c[nH]c3ncc(-c4ccc(Cl)cc4)cc23)c1F", "recordedEndpoint": "%-inhibition of PAK6", "measuredResult": "-7%"}
{"molecule": "CC(C)(C)c1nc(-c2cccc(NS(=O)(=O)c3c(F)cccc3F)c2F)c(-c2ccnc(N)n2)s1", "recordedEndpoint": "%-inhibition of PAK6", "measuredResult": "9%"}
{"molecule": "CS(=O)(=O)CCNCc1ccc(-c2ccc3ncnc(Nc4ccc(OCc5cccc(F)c5)c(Cl)c4)c3c2)o1", "recordedEndpoint": "%-inhibition of PAK6", "measuredResult": "0.144%"}
{"molecule": "COc1cc2c(Nc3ccc(Br)cc3F)ncnc2cc1OCC1CCN(C)CC1", "recordedEndpoint": "%-inhibition of PAK6", "measuredResult": "-5.42%"}
{"molecule": "CC(=O)Nc1cccc(-n2c(=O)n(C3CC3)c(=O)c3c(Nc4ccc(I)cc4F)n(C)c(=O)c(C)c32)c1", "recordedEndpoint": "%-inhibition of PAK6", "measuredResult": "8%"}
{"molecule": "COc1cc2nccc(Oc3ccc(NC(=O)C4(C(=O)Nc5ccc(F)cc5)CC4)cc3)c2cc1OC [cabozantinib]", "recordedEndpoint": "%-inhibition of PAK6", "measuredResult": "-4%"}
{"molecule": "O=S(=O)(c1cccc2cnccc12)N1CCCNCC1", "recordedEndpoint": "%-inhibition of PAK6", "measuredResult": "8%"}

query: Fill blank: measured %-inhibition of PAK6 of the molecule COc1cc(Nc2c(C#N)cnc3cc(OCCCN4CCN(C)CC4)c(OC)cc23)c(Cl)cc1Cl is ____.
result: -0.35%

query: Fill blank: measured %-inhibition of PAK6 of the molecule CNC(=O)c1cc(Oc2ccc(NC(=O)Nc3ccc(Cl)c(C(F)(F)F)c3)c(F)c2)ccn1 is ____.
result: -8%

----------
studySystem: panel of more than 300 wild-type and mutant kinases (313 kinase panel) (Homo sapiens)
assayProcedure: Kinase profiling in a biochemical assay panel (mobility shift assays and ELISA), %-inhibition at 1 μM; selectivity entropy
experimentalContext: kinase CRIK; compound at 1 μM
Reported %-inhibition of CRIK values for a set of molecules
Give your result in % as a bare value.

{"molecule": "Cc1nc(Nc2ncc(C(=O)Nc3c(C)cccc3Cl)s2)cc(N2CCN(CCO)CC2)n1 [dasatinib]", "measuredResult": 10}
{"molecule": "N#CC[C@H](C1CCCC1)n1cc(-c2ncnc3[nH]ccc23)cn1 [ruxolitinib]", "measuredResult": 8}
{"molecule": "CNC(=O)c1cc(Oc2ccc(NC(=O)Nc3ccc(Cl)c(C(F)(F)F)c3)c(F)c2)ccn1 [regorafenib]", "measuredResult": -18}

query: Fill blank: measured %-inhibition of CRIK of the molecule C[C@@H](Oc1cc(-c2cnn(C3CCNCC3)c2)cnc1N)c1c(Cl)ccc(F)c1Cl [crizotinib] is ____.
result: -12

query: Fill blank: measured %-inhibition of CRIK of the molecule Cc1ccc(C(=O)Nc2ccc(CN3CCN(C)CC3)c(C(F)(F)F)c2)cc1C#Cc1cnc2cccnn12 [ponatinib] is ____.
result: 61

query: Fill blank: measured %-inhibition of CRIK of the molecule CC(=O)Nc1cccc(-n2c(=O)n(C3CC3)c(=O)c3c(Nc4ccc(I)cc4F)n(C)c(=O)c(C)c32)c1 [trametinib] is ____.
result: -4.25

query: Fill blank: measured %-inhibition of CRIK of the molecule CCCS(=O)(=O)Nc1ccc(F)c(C(=O)c2c[nH]c3ncc(-c4ccc(Cl)cc4)cc23)c1F [vemurafenib] is ____.
result: -6

----------
Reported %-inhibition of PKD2 values for a set of molecules
studySystem: panel of more than 300 wild-type and mutant kinases (313 kinase panel) (Homo sapiens, UniProt Q9BZL6)
Sequence (Q9BZL6 whole entry, change not shown): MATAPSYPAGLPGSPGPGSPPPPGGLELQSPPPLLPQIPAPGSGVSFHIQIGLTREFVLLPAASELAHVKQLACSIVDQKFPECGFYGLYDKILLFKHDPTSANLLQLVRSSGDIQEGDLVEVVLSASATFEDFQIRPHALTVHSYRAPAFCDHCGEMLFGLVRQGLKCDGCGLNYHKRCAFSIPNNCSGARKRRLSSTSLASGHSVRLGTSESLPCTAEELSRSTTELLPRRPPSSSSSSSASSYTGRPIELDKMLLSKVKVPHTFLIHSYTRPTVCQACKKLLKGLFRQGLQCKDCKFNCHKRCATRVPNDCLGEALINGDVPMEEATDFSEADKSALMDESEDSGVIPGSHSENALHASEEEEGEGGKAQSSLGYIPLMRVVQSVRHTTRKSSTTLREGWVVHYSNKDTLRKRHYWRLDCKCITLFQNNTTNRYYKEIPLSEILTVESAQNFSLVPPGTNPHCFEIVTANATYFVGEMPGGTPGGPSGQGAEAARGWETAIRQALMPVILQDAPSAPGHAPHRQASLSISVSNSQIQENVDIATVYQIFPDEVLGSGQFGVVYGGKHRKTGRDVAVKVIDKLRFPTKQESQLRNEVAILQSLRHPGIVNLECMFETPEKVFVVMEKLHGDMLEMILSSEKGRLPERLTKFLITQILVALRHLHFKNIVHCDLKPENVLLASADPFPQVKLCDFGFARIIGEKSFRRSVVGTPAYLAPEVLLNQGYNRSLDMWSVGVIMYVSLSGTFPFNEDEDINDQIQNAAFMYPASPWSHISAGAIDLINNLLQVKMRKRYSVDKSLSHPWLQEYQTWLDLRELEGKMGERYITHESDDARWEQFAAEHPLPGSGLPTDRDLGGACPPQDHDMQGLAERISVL
assayProcedure: Kinase profiling in a biochemical assay panel (mobility shift assays and ELISA), %-inhibition at 1 μM; selectivity entropy
experimentalContext: kinase PKD2; 1 μM
Give your result in % as a bare value.

query: Fill blank: measured %-inhibition of PKD2 of the molecule Cc1cn(-c2cc(NC(=O)c3ccc(C)c(Nc4nccc(-c5cccnc5)n4)c3)cc(C(F)(F)F)c2)cn1 is ____.
result: -3

query: Fill blank: measured %-inhibition of PKD2 of the molecule O=S(=O)(c1cccc2cnccc12)N1CCCNCC1 is ____.
result: 24

query: Fill blank: measured %-inhibition of PKD2 of the molecule CC(=O)Nc1cccc(-n2c(=O)n(C3CC3)c(=O)c3c(Nc4ccc(I)cc4F)n(C)c(=O)c(C)c32)c1 is ____.
result: -3.28

----------
Reported %-inhibition of TSSK1 values for a set of compounds
studySystem: panel of more than 300 wild-type and mutant kinases (313 kinase panel) (Homo sapiens, UniProt Q9BXA7)
assayProcedure: Kinase profiling in a biochemical assay panel (mobility shift assays and ELISA), %-inhibition at 1 μM; selectivity entropy
experimentalContext: kinase TSSK1; 1 μM
Give your result in % as a bare value.

Consider the worked cases shown below.
{"compound": "Cc1ccc(Nc2nccc(N(C)c3ccc4c(C)n(C)nc4c3)n2)cc1S(N)(=O)=O", "%-inhibition of TSSK1 [%]": -1.56}
{"compound": "COc1cc2nccc(Oc3ccc(NC(=O)C4(C(=O)Nc5ccc(F)cc5)CC4)cc3)c2cc1OC [cabozantinib]", "%-inhibition of TSSK1 [%]": -1.49}

Now consider a different compound.
query: Fill blank: measured %-inhibition of TSSK1 of the compound CO[C@H]1C[C@@H]2CC[C@@H](C)[C@@](O)(O2)C(=O)C(=O)N2CCCC[C@H]2C(=O)O[C@H]([C@H](C)C[C@@H]2CC[C@@H](OC(=O)C(C)(CO)CO)[C@H](OC)C2)CC(=O)[C@H](C)/C=C(\C)[C@@H](O)[C@@H](OC)C(=O)[C@H](C)C[C@H](C)/C=C/C=C/C=C/1C is ____.
result: -7
